experimentalTarget: Bs-CspB R56A (Bacillus subtilis, UniProt P32081 1-67, R56A)
measurementProtocol: tryptophan fluorescence quenching
parameter: Kd (nM)

binder	unitText	experimentalResult
TTTTTTT (ssDNA) [dT7]	nM	11.8
